# target of assay: homocitrate synthase ScLys20 S385E variant (Saccharomyces cerevisiae, UniProt P48570, S385E)
# Construct: N-terminal His-tagged recombinant ScLys20
# Sequence (P48570 whole entry S385E): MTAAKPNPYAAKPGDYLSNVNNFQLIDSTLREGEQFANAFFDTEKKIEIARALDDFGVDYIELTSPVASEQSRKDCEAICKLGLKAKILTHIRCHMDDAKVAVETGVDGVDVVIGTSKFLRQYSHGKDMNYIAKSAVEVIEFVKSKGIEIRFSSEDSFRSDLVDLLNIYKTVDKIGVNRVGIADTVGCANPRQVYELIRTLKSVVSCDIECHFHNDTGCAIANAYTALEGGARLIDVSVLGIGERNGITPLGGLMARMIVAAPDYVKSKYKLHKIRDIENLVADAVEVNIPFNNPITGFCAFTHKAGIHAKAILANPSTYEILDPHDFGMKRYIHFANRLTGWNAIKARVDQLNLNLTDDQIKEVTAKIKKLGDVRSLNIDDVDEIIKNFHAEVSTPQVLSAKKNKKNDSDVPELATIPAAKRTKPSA
# assay comment: DCPIP-coupled HCS activity assay with purified enzyme ([…] 2-OG, […] AcCoA)
parameter: pIC50
Scale: negative log10 of molar concentration, which is what pIC50 denotes.

get_value(item= NCCCC[C@H](N)C(=O)O [lysine] , readout=pIC50) returns 2.49

The measurements presented in this section are drawn from paper PMC8276798.
